- test_system: CFTR (Homo sapiens, UniProt P13569)
- Sequence (P13569 with tags, fused parts or gaps DEL508-508): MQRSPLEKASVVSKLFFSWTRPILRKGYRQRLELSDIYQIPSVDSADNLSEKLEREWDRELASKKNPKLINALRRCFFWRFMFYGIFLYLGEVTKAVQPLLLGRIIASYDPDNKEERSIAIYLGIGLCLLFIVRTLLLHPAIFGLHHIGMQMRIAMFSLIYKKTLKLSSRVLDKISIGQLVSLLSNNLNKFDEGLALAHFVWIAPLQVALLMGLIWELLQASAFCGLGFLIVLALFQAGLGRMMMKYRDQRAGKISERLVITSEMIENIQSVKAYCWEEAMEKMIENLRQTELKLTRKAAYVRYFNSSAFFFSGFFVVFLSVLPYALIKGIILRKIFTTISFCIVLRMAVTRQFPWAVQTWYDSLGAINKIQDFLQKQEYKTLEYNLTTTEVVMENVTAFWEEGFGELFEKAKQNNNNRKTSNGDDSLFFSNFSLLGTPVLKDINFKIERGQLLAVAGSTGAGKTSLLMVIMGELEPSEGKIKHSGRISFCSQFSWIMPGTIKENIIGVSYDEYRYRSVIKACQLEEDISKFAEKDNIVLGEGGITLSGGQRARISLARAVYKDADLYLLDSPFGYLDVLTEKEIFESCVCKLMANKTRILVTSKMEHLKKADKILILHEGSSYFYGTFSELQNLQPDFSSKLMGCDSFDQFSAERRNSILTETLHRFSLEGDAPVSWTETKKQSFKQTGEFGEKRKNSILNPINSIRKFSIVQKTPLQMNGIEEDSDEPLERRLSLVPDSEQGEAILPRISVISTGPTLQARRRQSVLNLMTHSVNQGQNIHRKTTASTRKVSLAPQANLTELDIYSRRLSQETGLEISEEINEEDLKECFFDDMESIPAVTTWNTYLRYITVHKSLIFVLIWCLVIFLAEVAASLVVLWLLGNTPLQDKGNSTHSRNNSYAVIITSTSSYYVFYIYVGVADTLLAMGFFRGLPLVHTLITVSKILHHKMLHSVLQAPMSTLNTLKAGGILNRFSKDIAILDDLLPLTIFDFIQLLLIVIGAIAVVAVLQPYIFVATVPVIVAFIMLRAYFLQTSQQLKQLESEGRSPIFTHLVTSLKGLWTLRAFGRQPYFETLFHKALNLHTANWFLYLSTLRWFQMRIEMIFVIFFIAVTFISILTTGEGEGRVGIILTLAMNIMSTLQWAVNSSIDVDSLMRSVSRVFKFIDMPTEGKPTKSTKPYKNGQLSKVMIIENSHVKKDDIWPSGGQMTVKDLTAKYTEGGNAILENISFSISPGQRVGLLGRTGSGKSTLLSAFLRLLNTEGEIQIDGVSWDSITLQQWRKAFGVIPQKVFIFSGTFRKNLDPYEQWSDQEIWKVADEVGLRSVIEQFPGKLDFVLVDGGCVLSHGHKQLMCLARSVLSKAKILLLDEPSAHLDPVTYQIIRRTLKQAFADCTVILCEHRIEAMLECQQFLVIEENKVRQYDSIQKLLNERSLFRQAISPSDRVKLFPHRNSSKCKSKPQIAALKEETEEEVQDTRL
- assay_notes: Membrane potential dye, Enteroid Assay A
- Type: cell-based
- condition_summary: Table 7; human enteroid cells, 18-24 hours; acute 10 μM forskolin and 300 nM ivacaftor; read-out: Ent. A EC50
In this section we review reported EC50 values for a set of compounds.
value_kind: EC50

# compound, assay_result
measured = [
    ("Cc1cccc(C)c1-c1cc2nc(n1)NS(=O)(=O)c1cccc(c1)C(=O)N(Cc1ccc(N3CC[C@@H](C)C3)nc1)[C@H](CC(C)C)CO2", "< 1000 nM"),
    ("CCc1nccc(CN2Cc3cccc(c3)S(=O)(=O)Nc3nc(cc(-c4c(C)cccc4C)n3)OC[C@H]2CC(C)C)n1", "< 1000 nM"),
    ("CNC(=O)c1ccc(CN2C(=O)c3cccc(c3)S(=O)(=O)Nc3nc(cc(-c4c(C)cccc4C)n3)OC[C@H]2CC2(C(F)(F)F)CC2)cc1 [Compound 682]", "1000 to 3000 nM"),
    ("Cc1cccc(C)c1-c1cc2nc(n1)NS(=O)(=O)c1cccc(c1)C(=O)N(Cc1ccc(OCCN(C)C)nc1)[C@H](CC(C)C)CO2", "< 1000 nM"),
    ("Cc1cccc(C)c1-c1cc2nc(n1)NS(=O)(=O)c1cccc(c1)CN(Cc1ccc3c(c1)OC(F)(F)O3)[C@H](CC(C)C)CO2", "< 1000 nM"),
    ("Cc1cccc(C)c1-c1cc2nc(n1)NS(=O)(=O)c1cccc(c1)C(=O)N(CCC1CCOCC1)[C@H](CC(F)(F)F)CO2 [Compound 982]", "1000 to 3000 nM"),
]

----------
- test_system: F508del (Homo sapiens, UniProt P13569, DEL508-508)
- Construct: expressed in transfected cells
- Sequence (P13569 with tags, fused parts or gaps DEL508-508): as above
- assay_notes: 3T3 assay: membrane potential optical assay for F508del correction
- Type: cell-based
- condition_summary: Table 7; F508del NIH 3T3 cells, 18-24 hours at 37° C.; forskolin, acutely added 300 nM Ivacaftor
value_kind: EC50

# compound, value_kind, assay_result
rows = [
    ("Cc1cccc(C)c1-c1cc2nc(n1)NS(=O)(=O)c1cccc(c1)CN(CCCC1(C(F)(F)F)CC1)[C@H](CC(C)C)CO2", "EC50", "< 1 µM"),
    ("Cc1cccc(C)c1-c1cc2nc(n1)NS(=O)(=O)c1cccc(c1)C(=O)N(CCC(C)(C)C)C(C(F)(F)F)CO2 (stereo not drawn)", "EC50", "1 to 3 µM"),
    ("Cc1cccc(C)c1-c1cc2nc(n1)NS(=O)(=O)c1cccc(c1)C(=O)N(C)C[C@H](c1ccc(C(C)(C)C)cc1)O2 (single isomer, unassigned)", "EC50", "< 1 µM"),
    ("Cc1cccc(C)c1-c1cc2nc(n1)NS(=O)(=O)c1cccc(c1)CN(Cc1cccc3c1OC(F)(F)O3)[C@H](CC(C)C)CO2", "EC50", "< 1 µM"),
    ("Cc1cccc(C)c1-c1cc2nc(n1)NS(=O)(=O)c1cccc(c1)C(=O)N(CCC1CCN(C(C)C)CC1)[C@H](CC(C)C)CO2", "EC50", "< 1 µM"),
    ("Cc1cccc(C)c1-c1cc2nc(n1)NS(=O)(=O)c1cccc(c1)CN(Cc1cnn(-c3ccccc3)c1C)[C@H](CC(C)C)CO2", "EC50", "< 1 µM"),
]

----------
- test_system: CFTR (Homo sapiens, UniProt P13569, DEL508-508)
- Construct: endogenous in cells; host or cells: primary human bronchial epithelial cells from CF subjects (F508del/MF-HBE), differentiated at air-liquid interface
- Sequence (P13569 with tags, fused parts or gaps DEL508-508): as above
- assay_notes: HBE assay: Ussing chamber assay of CFTR-mediated short-circuit currents
- Assay type: cell-based
- condition_summary: Table 11; read-out: HBE Max Activity (%)
value_kind: Emax

# molecule, assay_result
data = [
    ("Cc1cccc(C)c1-c1cc2nc(n1)NS(=O)(=O)c1cccc(c1)C(=O)N(Cc1cnc(OC(C)C)cn1)[C@H](CC(C)(C)C)CO2", "> 60%"),
    ("Cc1cccc(C)c1-c1cc2nc(n1)NS(=O)(=O)c1cccc(c1)C(=O)N(Cc1ccnc(N(C)C(C)C)n1)[C@H](CC(C)(C)C)CO2", "> 60%"),
    ("Cc1cccc(C)c1-c1cc2nc(n1)NS(=O)(=O)c1cccc(c1)C(=O)N(Cc1cccc(C3CCCCO3)n1)[C@H](CC(C)(C)C)CO2 (stereo partly drawn)", "> 60%"),
]

----------
- test_system: CFTR (Homo sapiens, UniProt P13569, DEL508-508)
- Construct: endogenous in cells; host or cells: primary human bronchial epithelial cells from CF subjects (F508del/MF-HBE), differentiated at air-liquid interface
- assay_notes: HBE2 assay: Ussing chamber assay of CFTR-mediated short-circuit currents
- Format: cell-based
- condition_summary: 3 μM; F508del/MF-HBE cells; with 44 nM potentiator; 18-24 hours; 20% human serum
- Procedure: Ussing Chamber Assay of CFTR-Mediated Short-Circuit Currents After four days the apical media was removed, and the cells were grown at an air liquid interface for >14 days prior to use. To isolate the CFTR-mediated short-circuit (ISC) current, F508del/MF-HBE grown on Costar® Snapwell™ cell culture inserts were mounted in an Ussing chamber and the transepithelial ISC was measured under voltage-clamp recording conditions (Vhold=0 mV) at 37° C. […]
value_kind: HBE2 Activity at 3 μM (%)

# compound, test_system, assay_result
measured = [
    ("Cc1cccc(C)c1-c1cc2nc(n1)NS(=O)(=O)c1cccc(c1)C(=O)N(Cc1cncc(N(C)C3CCC3)n1)[C@H](CC1(C)CC1)CO2", "CFTR (Homo sapiens, UniProt P13569, DEL508-508)", "+++ (+++ is >60+)"),
    ("Cc1cccc(C)c1-c1cc2nc(n1)NS(=O)(=O)c1cccc(c1)C(=O)N(Cc1cncc(N3CC[C@H]4C3CC(=O)N4C)n1)[C@H](CC(C)(C)C)CO2 (stereo in doubt)", "CFTR (Homo sapiens, UniProt P13569, DEL508-508)", "+++ (+++ is >60+)"),
    ("Cc1cccc(C)c1-c1cc2nc(n1)NS(=O)(=O)c1cccc(c1)C(=O)N(Cc1cc(C(C)C)n(C)n1)[C@H](CC(C)(C)C)CO2", "CFTR (Homo sapiens, UniProt P13569, DEL508-508)", "++ (++ is 30-60%)"),
    ("Cc1cccc(C)c1-c1cc2nc(n1)NS(=N)(=O)c1cccc(c1)C(=O)N(Cc1ncc(N3CC(C)(C)C3)cn1)[C@H](CC(C)(C)C)CO2 (single isomer, unassigned) [Compound 1312]", "CFTR (Homo sapiens, UniProt P13569, DEL508-508)", "++ (++ is 30-60%)"),
    ("CC[C@@H](C)Oc1cnc(CN2C(=O)c3cccc(c3)S(=O)(=O)Nc3nc(cc(-c4c(C)cccc4C)n3)OC[C@H]2CC2CCC2)nc1", "CFTR (Homo sapiens, UniProt P13569, DEL508-508)", "+++ (+++ is >60+)"),
    ("Cc1cccc(C)c1-c1cc2nc(n1)NS(=O)(=O)c1cccc(c1)C(=O)N(Cc1cncc(N(C)C3CCC3)n1)[C@H](CC1(C)CCC1)CO2", "CFTR (Homo sapiens, UniProt P13569, DEL508-508)", "+++ (+++ is >60+)"),
    ("Cc1cccc(C)c1-c1cc2nc(n1)NS(=O)(=O)c1cccc(c1)C(=O)N(Cc1cncc(N3CC(=O)N(C)C[C@H]3C)n1)[C@H](CC(C)(C)C)CO2", "CFTR (Homo sapiens, UniProt P13569, DEL508-508)", "+++ (+++ is >60+)"),
    ("Cc1cccc(C)c1-c1cc2nc(n1)NS(=O)(=O)c1cccc(c1)C(=O)N(Cc1cncc(N(C)CCO)n1)[C@H](CC(C)(C)C)CO2", "CFTR (Homo sapiens, UniProt P13569, DEL508-508)", "+++ (+++ is >60+)"),
    ("CO[C@H]1C[C@@H](N(C)c2cncc(CN3C(=O)c4cccc(c4)S(=O)(=O)Nc4nc(cc(-c5c(C)cccc5C)n4)OC[C@H]3CC(C)(C)C)n2)C1", "CFTR (Homo sapiens, UniProt P13569, DEL508-508)", "+++ (+++ is >60+)"),
    ("CC[C@@H]1CCCN1c1cncc(CN2C(=O)c3cccc(c3)S(=O)(=O)Nc3nc(cc(-c4c(C)cccc4C)n3)OC[C@H]2CC(C)(C)C)n1", "CFTR (Homo sapiens, UniProt P13569, DEL508-508)", "+++ (+++ is >60+)"),
]

----------
- test_system: CFTR (Homo sapiens, UniProt P13569)
- assay_notes: Membrane potential dye, Enteroid Assay A
- Format: cell-based
- condition_summary: Table 7; chloride transport as % of triple combination control (Enteroid Assay A)
value_kind: Ent. A Max Activity

# compound, assay_result
rows = [
    ("Cc1cccc(C)c1-c1cc2nc(n1)NS(=O)(=O)c1cccc(c1)C(=O)N(Cc1ccc(N3CCCCC3)nc1)[C@H](CC(C)C)CO2", "+++ (+++ is >60%)"),
    ("CNC(=O)c1ccc(CN2C(=O)c3cccc(c3)S(=O)(=O)Nc3nc(cc(-c4c(C)cccc4C)n3)OC[C@H]2CC2(C(F)(F)F)CC2)cc1 [Compound 683]", "+++ (+++ is >60%)"),
    ("Cc1cccc(C)c1-c1cc2nc(n1)NS(=O)(=O)c1cccc(c1)C(=O)N(CC1CC3(CCN(C(C)C)CC3)C1)[C@H](CC(C)C)CO2", "+++ (+++ is >60%)"),
    ("Cc1cccc(C)c1-c1cc2nc(n1)NS(=O)(=O)c1cccc(c1)C(=O)N(Cc1ccc(N3CC[C@@H](C)C3)nc1)[C@H](CC(C)C)CO2", "+++ (+++ is >60%)"),
    ("CNC(=O)c1ccc(CN2C(=O)c3cccc(c3)S(=O)(=O)Nc3nc(cc(-c4c(C)cccc4C)n3)OC[C@H]2CC(C)C)cn1", "+++ (+++ is >60%)"),
    ("Cc1cccc(C)c1-c1cc2nc(n1)NS(=O)(=O)c1cccc(c1)C(=O)N(C)CC(c1ccc(C3=CCOCC3)cc1)O2 (stereo not shown) [Compound 671]", "+++ (+++ is >60%)"),
    ("CC[C@H](O)CNc1ccc(CN2C(=O)c3cccc(c3)S(=O)(=O)Nc3nc(cc(-c4c(C)cccc4C)n3)OC[C@H]2CC(C)C)cn1", "+++ (+++ is >60%)"),
    ("Cc1cccc(C)c1-c1cc2nc(n1)NS(=O)(=O)c1cccc(c1)C(=O)N(Cc1ccc(N3CCCC(C)C3)nc1)[C@H](CC(C)C)CO2 (stereo partly shown)", "+++ (+++ is >60%)"),
    ("CC(=O)N1Cc2cccc(c2)S(=O)(=O)Nc2nc(cc(-c3c(C)cccc3C)n2)OC[C@H]1CC(C)C", "+ (+ is <30%)"),
    ("Cc1cccc(C)c1-c1cc2nc(n1)NS(=O)(=O)c1cccc(c1)C(=O)N(Cc1ccc(N3CCC3)nc1)[C@H](CC(C)C)CO2", "+++ (+++ is >60%)"),
    ("COc1ccc(CN2C(=O)c3cccc(c3)S(=O)(=O)Nc3nc(cc(-c4c(C)cccc4C)n3)OC[C@H]2CC2(C(F)(F)F)CC2)cc1 [Compound 679]", "+++ (+++ is >60%)"),
    ("COC1CCC(CC(=O)N2Cc3cccc(c3)S(=O)(=O)Nc3nc(cc(-c4c(C)cccc4C)n3)OC[C@H]2CC(C)C)CC1 (stereo partly shown) [Compound 1047]", "+ (+ is <30%)"),
]
